This collection of values is drawn from patent US7262212B2.

Consider the following compounds and their measured melting point readings.
Outcome Measure: melting point

{"Compound": "O=[N+]([O-])c1cn2c(n1)OC(CN1CCN(Cc3ccc(-c4ccccc4)cc3)CC1)C2 (stereo not shown)", "Result": "183 to 185 °C (dec.)"}
{"Compound": "C[C@]1(CN2CCC(NCc3ccc(C(F)(F)F)cc3)CC2)Cn2cc([N+](=O)[O-])nc2O1", "Result": "148.6 to 152.9 °C"}
{"Compound": "COc1ccc(C(=O)N2CCN(CC3(C)Cn4cc([N+](=O)[O-])nc4O3)CC2)cc1 (stereo not shown)", "Result": "135 to 137 °C"}
{"Compound": "C[C@]1(CN2CCN(N=Cc3ccc(C(F)(F)F)cc3)CC2)Cn2cc([N+](=O)[O-])nc2O1 [Example 505]", "Result": "188.4 to 191.2 °C"}
